Tested on: BDF1 mice, B16 melanoma ip, median survival T/C
Assay: NCI In Vivo Anticancer Drug Screen. Data for tumor model B16 Melanoma (intraperitoneal) in B6D2F1 (BDF1) mice
Conditions: endpoint: median survival time; dose: 12.5 mg/kg/injection; schedule: Q01DX009 (ip); vehicle: Klucel (hydroxypropylcellulose) (HPC)
Toxic doses and inconclusive results are not listed. How the source made its calls: active means survival T/C of 150% or more; inactive means T/C below 125% in these data.
Just give me one of these, please: t (active), f (inactive)

Study these solved cases before continuing.
Cc1cc(CCl)c(C)c(Br)c1C | f
COc1ccc2[nH]c3ccc4cc[n+](CCN5CCC(C6CCN(CC[n+]7ccc8ccc9[nH]c%10ccc(OC)cc%10c9c8c7)CC6)CC5)cc4c3c2c1 | t
CCCCCCC1CCC(N)CC1 (configuration not stated) | f
O=S(CCCl)CCCl | f
COC(=O)c1ccc(-c2ccccc2)cc1 | f

For this molecule, state the assay outcome: O=S1(=O)CC(Cl)C(Cl)C1 (configuration not stated)
f

For this molecule, state the assay outcome: CC(=O)OCc1c(O)c2c(c(O)c1COC(C)=O)C(=O)C=CC2=O
f

For this molecule, state the assay outcome: COC(=O)C1C2CC3c4[nH]c5cc(OC)ccc5c4CCN3CC2CC(OC(=O)c2cc(OC)c(OC)c(OC)c2)C1OC (configuration not stated)
f

For this molecule, state the assay outcome: CCOC(=O)/C=C(\CBr)OC
f
